// merged dataset of IC50 values, system = Glycogen synthase kinase-3 alpha (Homo sapiens, UniProt P49840), multiple refs

{"compound": "COCCOCCOCC[S+]([O-])c1ccc(Nc2cc(Oc3ccc(NC(=O)Nc4cc(C(C)(C)C)cc(NS(C)(=O)=O)c4OC)c4ccccc34)ccn2)cc1OC (centres unmarked)", "study_target": "Glycogen synthase kinase-3 alpha (Homo sapiens, UniProt P49840)", "result_operator": "=", "IC50, nM": 1300}
{"compound": "CC(C)(C)c1cc(NC(=O)Nc2ccc(Oc3ccnc(Nc4ccc5[nH]ccc5c4)n3)c3ccccc23)n(-c2ccc(O)cc2)n1", "study_target": "Glycogen synthase kinase-3 alpha (Homo sapiens, UniProt P49840)", "result_operator": ">", "IC50, nM": 1600}
{"compound": "COc1cc(Nc2ncc3cc(-c4cc(C(=O)Nc5cc(C(C)(C)C)cc(C(N)=O)c5OC)ccc4C)ccc3n2)cc(C(=O)NCCN2CCOCC2)c1", "study_target": "Glycogen synthase kinase-3 alpha (Homo sapiens, UniProt P49840)", "result_operator": ">", "IC50, nM": 13100}
{"compound": "COc1ccc(-n2nc(C(C)C)cc2NC(=O)Nc2ccc(Oc3ccnc(Nc4ccc5[nH]nc(C(=O)N(C)C)c5c4)n3)c3ccccc23)cc1", "study_target": "Glycogen synthase kinase-3 alpha (Homo sapiens, UniProt P49840)", "result_operator": "=", "IC50, nM": 908}
{"compound": "COc1c(CC(N)=O)cc(C(C)(C)C)cc1NC(=O)Nc1ccc(Oc2ccnc(Nc3cc(C)cc(C)c3)c2)c2ccccc12", "study_target": "Glycogen synthase kinase-3 alpha (Homo sapiens, UniProt P49840)", "result_operator": "=", "IC50, nM": 14800}
{"compound": "C#CC(C)(C)c1cc(NC(=O)Nc2ccc(Oc3ccnc(Nc4cc(OC)cc(OCCN5CCOCC5)c4)n3)c3ccccc23)n(-c2ccc(C)cc2)n1", "study_target": "Glycogen synthase kinase-3 alpha (Homo sapiens, UniProt P49840)", "result_operator": "=", "IC50, nM": 2570}
{"compound": "COc1c(NC(=O)Nc2ccc(Oc3ccnc(NCCn4cccn4)n3)c3ccccc23)cc(C(C)(C)C)cc1P(C)(C)=O", "study_target": "Glycogen synthase kinase-3 alpha (Homo sapiens, UniProt P49840)", "result_operator": "=", "IC50, nM": 387}

----------
// merged dataset of IC50 values, system = Glycogen synthase kinase-3 alpha (Homo sapiens, UniProt P49840), multiple refs
property_name: IC50

{"test_smiles": "COc1cc(Nc2cc(Oc3ccc(NC(=O)Nc4cc(C(C)(C)C)cc(S(C)(=O)=O)c4OC)c4ccccc34)ccn2)ccc1C(=O)NCCN1CCOCC1", "study_target": "Glycogen synthase kinase-3 alpha (Homo sapiens, UniProt P49840)", "result": "> 5800 nM"}
{"test_smiles": "O=C1NCCc2cccc(c2)Nc2ncnc(n2)-c2ccnc(c2)CCCN2C[C@H](O)C[C@@H]12", "study_target": "Glycogen synthase kinase-3 alpha (Homo sapiens, UniProt P49840)", "result": "10 to 100 nM"}
{"test_smiles": "C#CC(C)(C)c1cc(NC(=O)Nc2ccc(Oc3ccnc(Nc4ccccc4)c3)c3ccccc23)n(-c2ccc(C)cc2)n1", "study_target": "Glycogen synthase kinase-3 alpha (Homo sapiens, UniProt P49840)", "result": "> 10000 nM"}
{"test_smiles": "COc1ccc(-n2nc(C(C)(C)C)cc2NC(=O)Nc2ccc(Oc3ccnc(Nc4ccc5[nH]ncc5c4)n3)c3ccccc23)cn1", "study_target": "Glycogen synthase kinase-3 alpha (Homo sapiens, UniProt P49840)", "result": "> 1560 nM"}
